target: T1, human PD-1 (human, UniProt Q15116 25-167); assay: SPR, multiple-cycle, crude Fab from E. coli; antigen form not stated
T1 construct: The immunogen was PD1/Fc (Leu25-Gln167 fused to human IgG1 Pro100-Lys330); also called huPD-1; hPD-1
T1 sequence (Q15116 25-167 limits assumed): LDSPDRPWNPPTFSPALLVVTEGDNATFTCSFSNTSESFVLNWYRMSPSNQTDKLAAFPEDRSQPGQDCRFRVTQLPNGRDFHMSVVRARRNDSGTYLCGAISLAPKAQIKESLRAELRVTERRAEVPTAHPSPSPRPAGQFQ
reported-property: koff
Number first, unit second.

| binder | reported-property | observed-result |
| --- | --- | --- |
| Fab 11 (Fab, V domains shown, Crude Fab from E. coli; also called PD1-BM VL-L83F) VH: EVQLVESGGGLVQPGGSLRLSCAASGFVFSRYDMAWVRQTPGKGLEWVAFISGGGSNTYYPDTVKGRFTISRDNSKNTLYLQMNSLRAEDTAVYYCISPYYYAMEYWGQGTTVTVSS VL: DIQMTQSPSSISTSVGDRVTITCKASQDVDTAVAWYQQKPGKSPKLLIHWASTRHTGVPSRFSGSGSGTDFTLTLSSVQPEDFADYFCQQYSTFPWTFGGGTKLEIK | koff | 0.00022 s⁻¹ |
| PD1-BM Ab (Fab) (Fab, V domains shown, Humanized Fab with all 14 back mutations; also called PD1-BM Fab) VH: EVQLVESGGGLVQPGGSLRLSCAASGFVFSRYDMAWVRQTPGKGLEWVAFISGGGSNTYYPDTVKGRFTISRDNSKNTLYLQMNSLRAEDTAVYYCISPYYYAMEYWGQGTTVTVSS VL: DIQMTQSPSSISTSVGDRVTITCKASQDVDTAVAWYQQKPGKSPKLLIHWASTRHTGVPSRFSGSGSGTDFTLTLSSVQPEDLADYFCQQYSTFPWTFGGGTKLEIK | koff | 5.5e-05 s⁻¹ |

For Fab 13 (Fab, V domains shown, Crude Fab from E. coli; also called PD1-BM VL-F87Y) VH: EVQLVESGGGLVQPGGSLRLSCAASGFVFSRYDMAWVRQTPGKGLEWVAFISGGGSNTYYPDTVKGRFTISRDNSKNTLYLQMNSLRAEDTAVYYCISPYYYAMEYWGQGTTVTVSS VL: DIQMTQSPSSISTSVGDRVTITCKASQDVDTAVAWYQQKPGKSPKLLIHWASTRHTGVPSRFSGSGSGTDFTLTLSSVQPEDLADYYCQQYSTFPWTFGGGTKLEIK the binder record lists koff as 0.0001 s⁻¹

All figures here come from patent US20190330346A1.
